System: Zika virus
Experiment: Anti-viral activity against ZIKV Argentine strain INEVH116141 infected in african green monkey Vero cells at 0.1 MOI assessed as reduction in virus yield measured after 48 hrs by virus reduction assay
Type: functional, organism-based
Recorded EC50 by entry
Quantity Kind: EC50

Compound Smiles: Nc1ccc(-c2ccc(Nc3cc(C(F)(F)F)nc(NCCN4CCCCC4)n3)cc2)cc1
Result: > 10 µM
--
Compound Smiles: O=C(Nc1cc(C(F)(F)F)nc(NCCN2CCCCC2)n1)c1ccc(Cl)cc1
Result: > 20 µM
--
Compound Smiles: FC(F)(F)c1cc(NCc2ccc(-c3ccccc3)cc2)nc(NCCN2CCCCC2)n1
Result: > 20 µM
--
Compound Smiles: FC(F)(F)c1cc(NCc2cccnc2)nc(NCCN2CCCCC2)n1
Result: > 50 µM

###

Recorded selectivity ratio by entry
Test: Selectivity index, ratio of CC50 for cytotoxicity against African green monkey Vero cells to EC50 for anti-viral activity against ZIKV Argentine strain INEVH116141
Format: toxicity, cell-based
Conditions: read-out: Selectivity Index
Quantity Kind: selectivity ratio

Compound Smiles: FC(F)(F)c1cc(NCc2cccnc2)nc(NCCN2CCCCC2)n1
Quantity Kind: selectivity ratio
Qualifier: <
Number: 4
//
Compound Smiles: FC(F)(F)c1cc(NCc2ccc(-c3ccccc3)cc2)nc(NCCN2CCCCC2)n1
Quantity Kind: selectivity ratio
Qualifier: <
Number: 2
//
Compound Smiles: FC(F)(F)c1cc(Nc2ccc(-c3ccccc3)cc2)nc(NCCN2CCCCC2)n1
Quantity Kind: selectivity ratio
Qualifier: =
Number: 5.12
//
Compound Smiles: N#Cc1cc(Nc2ccc(-c3ccccc3)cc2)nc(NCCN2CCCCC2)n1
Quantity Kind: selectivity ratio
Qualifier: =
Number: 5.89
//
Compound Smiles: FC(F)(F)c1cc(Nc2ccc(Cl)cc2)nc(NCCN2CCCCC2)n1
Quantity Kind: selectivity ratio
Qualifier: =
Number: 1.88
//
Compound Smiles: Nc1ccc(-c2ccc(Nc3cc(C(F)(F)F)nc(NCCN4CCCCC4)n3)cc2)cc1
Quantity Kind: selectivity ratio
Qualifier: <
Number: 2
//
Compound Smiles: O=C(Nc1cc(C(F)(F)F)nc(NCCN2CCCCC2)n1)c1ccc(Cl)cc1
Quantity Kind: selectivity ratio
Qualifier: <
Number: 1.05

###

System: dengue virus type 2
Assay: Anti-viral activity against DENV-2 Thailand/16681/1984 strain infected in african green monkey Vero cells at 0.1 MOI assessed as reduction in virus yield measured after 48 hrs by virus reduction assay
Format: functional, organism-based
Details: Thailand/16681/1984, Vero
pEC50: −log10 of the molar value.
Recorded pEC50 by entry
Quantity Kind: pEC50

Compound Smiles: FC(F)(F)c1cc(NCc2ccc(-c3ccccc3)cc2)nc(NCCN2CCCCC2)n1
Result: < 4.70
//
Compound Smiles: COc1ccc(CNc2cc(C(F)(F)F)nc(NCCN3CCCCC3)n2)cc1
Result: < 4.70
//
Compound Smiles: FC(F)(F)c1cc(NCc2cccnc2)nc(NCCN2CCCCC2)n1
Result: < 4.30
//
Compound Smiles: Cc1ccc(CNc2cc(C(F)(F)F)nc(NCCN3CCCCC3)n2)cc1
Result: < 4.70
//
Compound Smiles: O=C(Nc1cc(C(F)(F)F)nc(NCCN2CCCCC2)n1)c1ccc(Cl)cc1
Result: < 4.70

###

Test: Selectivity index, ratio of CC50 for cytotoxicity against African green monkey Vero cells to EC50 for anti-viral activity against DENV-2 Thailand/16681/1984 strain
Assay type: toxicity, cell-based
Conditions: read-out: Selectivity Index

Compound Smiles: Nc1ccc(-c2ccc(Nc3cc(C(F)(F)F)nc(NCCN4CCCCC4)n3)cc2)cc1
selectivity ratio: < 2
--
Compound Smiles: FC(F)(F)c1cc(NCc2cccnc2)nc(NCCN2CCCCC2)n1
selectivity ratio: < 4
--
Compound Smiles: FC(F)(F)c1cc(NCc2ccc(-c3ccccc3)cc2)nc(NCCN2CCCCC2)n1
selectivity ratio: < 2
